testName: MTT viability assay
Format: cell-based, human
conditions: human, HEK293T cells; HEK293T, 60 μM, 16 h; read-out: Cell viability (MTT)
So basically: is viability at 16 h, 60 µM under 80%? Then YES. Not under? Then NO.

Consider the following illustrative entries.
molecule	groupLabel
COc1cc(CCC(=O)N2CCCN(S(=O)(=O)c3cccc4cnccc34)CC2)ccc1O	NO
O=C(CCc1ccc(O)c(O)c1)N1CCCN(S(=O)(=O)c2cccc3cnccc23)CC1	NO
O=S(=O)(c1cccc2cnccc12)N1CCCNCC1 [fasudil, reference compound]	NO
COc1cc(/C=C/C(=O)N2CCN(S(=O)(=O)c3cccc4cnccc34)CC2)ccc1O	YES

# TODO verify viability at 16 h, 60 µM < 80% strictly for this molecule: "O=C(/C=C/c1ccc(O)c(O)c1)N1CCN(S(=O)(=O)c2cccc3cnccc23)CC1" NO

###

System: NRF2
testName: 3×ARE-LUC luciferase reporter assay
Type: cell-based, human
conditions: Homo sapiens, HEK-293T; 60 µM, HEK293T, 16 h; read-out: Luciferase assay response
# reported fold induction at 60 µM; entries follow
Please give only the number in your answer, with no unit.

Name the reported fold induction at 60 µM value associated with the compound O=C(CCc1ccc(O)c(O)c1)N1CCN(S(=O)(=O)c2cccc3cnccc23)CC1 [Compound 1c] 5.8

###

testTarget: human serum albumin (HSA) (Homo sapiens, UniProt P02768)
Sequence (P02768 25-609): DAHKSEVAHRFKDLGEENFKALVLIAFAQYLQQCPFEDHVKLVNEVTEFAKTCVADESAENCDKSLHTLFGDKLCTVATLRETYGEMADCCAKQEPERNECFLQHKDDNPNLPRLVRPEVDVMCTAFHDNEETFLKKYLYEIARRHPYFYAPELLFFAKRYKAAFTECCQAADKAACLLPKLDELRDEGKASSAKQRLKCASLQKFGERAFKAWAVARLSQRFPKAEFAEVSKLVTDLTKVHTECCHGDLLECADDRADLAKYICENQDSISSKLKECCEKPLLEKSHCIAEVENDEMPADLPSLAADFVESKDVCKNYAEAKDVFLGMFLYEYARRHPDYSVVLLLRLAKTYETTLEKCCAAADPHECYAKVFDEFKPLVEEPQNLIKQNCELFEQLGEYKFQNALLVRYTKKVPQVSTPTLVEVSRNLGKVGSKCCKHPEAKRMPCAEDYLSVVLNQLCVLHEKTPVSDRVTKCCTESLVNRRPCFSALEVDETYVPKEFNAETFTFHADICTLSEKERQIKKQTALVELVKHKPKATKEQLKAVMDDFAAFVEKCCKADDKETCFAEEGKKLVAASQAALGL
testName: biochemical
endpointLabel: pKd
Formally, pKd is defined as -log10 of the concentration c, with c in mol/L.

What value of measured pKd is listed for "O=C(CCc1ccc(O)c(O)c1)N1CCCN(S(=O)(=O)c2cccc3cnccc23)CC1" ? 5.90

###

Each entry below lists one item and its recorded fold induction at 20 µM value.
Tested on: NRF2
testName: 3×ARE-LUC luciferase reporter assay
Format: cell-based, human
conditions: Homo sapiens, 16 h; 20 microM, supplementary CSV; read-out: NRF2 induction @ 20 microM (fold change)
Method: Transient transfections of HEK293T cells were performed with the expression vectors for TK-Renilla (Promega, Madison, […]) and the expression vector ARE-LUC (Dr. J. Alam, Dept. of Molecular Genetics, Ochsner Clinic Foundation, New Orleans, LA). Cells were seeded on 24-well plates (75,000 cells per well), cultured for 16 h, and transfected using calcium phosphate. […] Relative light units were measured in a GloMax 96 microplate luminometer with dual injectors (Promega).

compound	fold induction at 20 µM
O=C(CCc1ccc(O)c(O)c1)N1CCCN(S(=O)(=O)c2cccc3cnccc23)CC1	4.4
O=S(=O)(c1cccc2cnccc12)N1CCCNCC1 [fasudil, reference compound]	1
COc1cc(CCC(=O)N2CCN(S(=O)(=O)c3cccc4cnccc34)CC2)ccc1O	0.8
O=C(/C=C/c1ccc(O)c(O)c1)N1CCCN(S(=O)(=O)c2cccc3cnccc23)CC1	3.1

Now for another entry.
NRF2 / fold induction at 20 µM / "COc1cc(CCC(=O)N2CCCN(S(=O)(=O)c3cccc4cnccc34)CC2)ccc1O" : value? 0.9

###

testTarget: ROCK-II (ROKa) (Rattus norvegicus)
Sequence (Q62868 2-543 limits assumed): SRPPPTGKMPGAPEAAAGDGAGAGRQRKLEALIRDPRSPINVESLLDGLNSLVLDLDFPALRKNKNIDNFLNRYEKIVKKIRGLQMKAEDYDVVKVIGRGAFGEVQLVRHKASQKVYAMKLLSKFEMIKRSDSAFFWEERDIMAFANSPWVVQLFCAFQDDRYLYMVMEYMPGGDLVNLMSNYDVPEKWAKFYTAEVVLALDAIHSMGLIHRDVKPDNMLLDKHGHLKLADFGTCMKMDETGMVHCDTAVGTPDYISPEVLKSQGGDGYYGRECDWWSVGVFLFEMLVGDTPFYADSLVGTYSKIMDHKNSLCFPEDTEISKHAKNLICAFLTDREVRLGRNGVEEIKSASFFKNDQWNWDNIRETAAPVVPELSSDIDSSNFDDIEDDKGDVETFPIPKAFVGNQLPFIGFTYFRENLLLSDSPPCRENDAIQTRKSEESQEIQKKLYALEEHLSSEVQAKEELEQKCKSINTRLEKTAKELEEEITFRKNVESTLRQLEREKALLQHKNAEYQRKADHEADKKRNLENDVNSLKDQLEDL
testName: ROCK inhibition studies (33P-ATP, Long S6 substrate peptide)
Type: biochemical
conditions: 0.5 h; 10 microM, supplementary CSV; read-out: ROCK2 activity @ 10microM
endpointLabel: remaining activity at 10 µM

Observe how each entry below is paired with its result.
smilesRecord	endpointLabel	measurement
O=C(/C=C/c1ccc(O)c(O)c1)N1CCCN(S(=O)(=O)c2cccc3cnccc23)CC1	remaining activity at 10 µM	7.8%
COc1cc(/C=C/C(=O)N2CCCN(S(=O)(=O)c3cccc4cnccc34)CC2)ccc1O	remaining activity at 10 µM	30.3%
O=C(CCc1ccc(O)c(O)c1)N1CCCN(S(=O)(=O)c2cccc3cnccc23)CC1	remaining activity at 10 µM	14.6%
COc1cc(/C=C/C(=O)N2CCN(S(=O)(=O)c3cccc4cnccc34)CC2)ccc1O	remaining activity at 10 µM	47%
COc1cc(CCC(=O)N2CCN(S(=O)(=O)c3cccc4cnccc34)CC2)ccc1O	remaining activity at 10 µM	53%

Name the reported remaining activity at 10 µM value associated with the compound "O=C(/C=C/c1ccc(O)c(O)c1)N1CCN(S(=O)(=O)c2cccc3cnccc23)CC1" 13.7%

State the recorded remaining activity at 10 µM for this entry: "O=C(CCc1ccc(O)c(O)c1)N1CCN(S(=O)(=O)c2cccc3cnccc23)CC1" 32.6%

Consider the compound "COc1cc(CCC(=O)N2CCCN(S(=O)(=O)c3cccc4cnccc34)CC2)ccc1O" and give its measured remaining activity at 10 µM. 27.4%
